# Tested on: HT-1080 cells expressing IDH1R132C
# EXPERIMENTAL DETAILS: 2-HG production inhibitory activity using HT1080 cell
# Format: cell-based, human
# TEST PARAMETERS: Homo sapiens, HT-1080; 2-HG production, HT1080 cells; read-out: Test Example 3 IC50
PROPERTY: IC50 (µM)

1: CN(C)C1(c2onc(-c3c(Cl)cc(Cl)cc3Cl)c2C(=O)n2cc3c4c(cccc42)/C(=C/C(=O)O)CC3)CC1
2: C=CC(=O)N1CC2C(C1)C2c1onc(-c2c(Cl)cc(Cl)cc2Cl)c1C(=O)n1cc(C)c2c(/C=C/C(=O)O)cccc21 (stereo not drawn)
3: C=CC(=O)N1CCC(c2onc(-c3c(Cl)cc(Cl)cc3Cl)c2C(=O)n2cc3c4c(cccc42)/C(=C/C(=O)O)CC3)CC1
Parameters: sort_field (IC50), sort_dir (desc). Your reply should list the labels following the order given in the request.
2, 1, 3

1: C=CC(=O)N(C)C1(c2onc(-c3c(Cl)cc(Cl)cc3Cl)c2C(=O)n2cc(C)c3c(/C=C/C(=O)O)cccc32)CCC1
2: C=CC(=O)N1CCC(C)(c2onc(-c3c(Cl)cc(Cl)cc3Cl)c2C(=O)n2ccc3c(/C=C/C(=O)O)cccc32)CC1
Given the listed records, identify the one among 1 and 2 with higher IC50. The response must carry the label of the picked entry.
1

1: NC[C@H]1CCN(c2onc(-c3c(Cl)cccc3Cl)c2C(=O)n2ccc3c(/C=C/C(=O)O)cccc32)C1
2: C=CC(=O)N1CCC(c2onc(-c3ccc(Cl)cc3Cl)c2C(=O)n2cc3c4c(cccc42)/C(=C/C(=O)O)CC3)CC1
Parameter check: reported IC50 is higher for which label, 1 or 2 ? Answer with the label corresponding to your selection.
1
(1: 0.339 µM, 2: 0.004 µM)

I: CC(C)(C)c1onc(-c2c(F)cc(Cl)cc2Cl)c1C(=O)n1ccc2c(/C=C/C(=O)O)cccc21
II: C=CC(=O)N1CCC(c2noc(-c3c(Cl)cc(Cl)cc3Cl)c2C(=O)n2ccc3c(/C=C/C(=O)O)cccc32)CC1
Would you mind telling me which has the lower recorded IC50 between I and II ? Please indicate the selected item by its label.
II
(II: 0.028 µM, I: 0.244 µM)

* * *

# Tested on: HT1080 xenografted mice (IDH1R132C)
# EXPERIMENTAL DETAILS: 2-HG production inhibitory activity using HT1080 xenografted mice
# Type: in vivo, mouse
# TEST PARAMETERS: 2-HG production, HT1080 xenografted mice
PROPERTY: Test Example 5 Ratio (%)
Hi! Could you send only the number? It should be in %, unit omitted.

Some solved entries appear below for comparison.
{"COMPOUND": "Cc1cn(C(=O)c2c(-c3c(F)cc(Cl)cc3F)noc2C(C)(C)F)c2cccc(/C=C/C(=O)O)c12 [Example 170]", "PROPERTY": "Test Example 5 Ratio (%)", "MEASURED RESULT": 35}
{"COMPOUND": "Cc1cn(C(=O)c2c(-c3c(F)cc(Cl)cc3F)noc2C(C)(C)F)c2cccc(/C=C/C(=O)O)c12 [Example 54]", "PROPERTY": "Test Example 5 Ratio (%)", "MEASURED RESULT": 16}
{"COMPOUND": "Cc1cn(C(=O)c2c(-c3c(F)cc(Cl)cc3Cl)noc2C(C)(C)F)c2cccc(/C=C/C(=O)O)c12 [Example 169]", "PROPERTY": "Test Example 5 Ratio (%)", "MEASURED RESULT": 17}
{"COMPOUND": "Cc1cn(C(=O)c2c(-c3ccc(Cl)cc3Cl)noc2C(C)(C)F)c2cccc(/C=C/C(=O)O)c12 [Example 62]", "PROPERTY": "Test Example 5 Ratio (%)", "MEASURED RESULT": 10}
{"COMPOUND": "CC(C)(C)c1onc(-c2c(Cl)cc(Cl)cc2Cl)c1C(=O)n1ccc2c(/C=C/C(=O)O)ccc(F)c21 [Example 48]", "PROPERTY": "Test Example 5 Ratio (%)", "MEASURED RESULT": 72}
{"COMPOUND": "Cc1cn(C(=O)c2c(-c3ccc(Cl)cc3Cl)noc2C(C)(C)F)c2cccc(/C=C/C(=O)O)c12 [Example 173]", "PROPERTY": "Test Example 5 Ratio (%)", "MEASURED RESULT": 2}

Which Test Example 5 Ratio (%) value is on record for Cc1cc(Cl)cc(Cl)c1-c1noc(C(C)(C)F)c1C(=O)n1cc(C)c2c(/C=C/C(=O)O)cccc21 [Example 172] ?
8

Return reported Test Example 5 Ratio (%); argument: Cc1cc(Cl)cc(C)c1-c1noc(C(C)(C)F)c1C(=O)n1cc(C)c2c(/C=C/C(=O)O)cccc21 [Example 171]
22
